system: NCI-H292 lung cancer cells; experiment: FDA drug screening, complete media vs cholesterol-free media with simvastatin (TABLE 2); type: cell-based, human; settings: NCI-H292 cells, FDA drug library screen, cholesterol-free media with simvastatin 0.04 μM
Counter-ions that a name gives are not always drawn.
parameter_measured: Cholesterol-free media + simvastatin (0.04 μM)
# print the numeric value only

compound | experimental_system | reading
CN(C/C=C/C#CC(C)(C)C)Cc1cccc2ccccc12 [Terbinafine hydrochloride] | NCI-H292 lung cancer cells | 1.241
COC(c1ccccc1)(c1ccccc1)[C@H](Oc1nc(C)cc(C)n1)C(=O)O [Ambrisentan] | NCI-H292 lung cancer cells | 1.296

Noted Cholesterol-free media + simvastatin (0.04 μM) for CCCCOc1cc(C(=O)NCCN(CC)CC)c2ccccc2n1 [Dibucaine (hydrochloride)] , tested on NCI-H292 lung cancer cells: 0.7966

Measured Cholesterol-free media + simvastatin (0.04 μM) for this entry CC(C)C(=O)Oc1ccc(CO)cc1[C@H](CCN(C(C)C)C(C)C)c1ccccc1 [Fesoterodine (L-mandelate)] on NCI-H292 lung cancer cells: 1.103

# CC(C)(C)c1cc(-c2cc(-c3ccc(C(=O)O)cc3)ccc2OCCO)ccc1N1CCCC1 [Trifarotene] with NCI-H292 lung cancer cells: Cholesterol-free media + simvastatin (0.04 μM) is 0.9343

Field Cholesterol-free media + simvastatin (0.04 μM) (system: NCI-H292 lung cancer cells) for entry Cn1c(=O)c2c(ncn2CCO)n(C)c1=O [Etofylline] = 0.885

Value sought: Cholesterol-free media + simvastatin (0.04 μM), system NCI-H292 lung cancer cells, item CC(C)(N)CNC(=O)C[C@H]1CC[C@]2(CC1)OO[C@]1(O2)C2CC3CC(C2)CC1C3 [Arterolane] . Result: 1.129

The observed Cholesterol-free media + simvastatin (0.04 μM) for COc1ccc2cc1Oc1ccc(cc1)C[C@H]1c3c(cc4c(c3Oc3cc5c(cc3OC)CCN(C)[C@@H]5C2)OCO4)CCN1C [cepharanthine, reference compound] when tested with NCI-H292 lung cancer cells stands at 0.1249
